Test system: NCI-H23
Protocol summary: Growth inhibition of human NCI-H23 cells after 48 hrs by sulforhodamine B colorimetric assay
Format: functional
Run parameters: NCI-H23, 48 h
Recorded endpoint: GI50 (µM)

Smiles code	Recorded endpoint	Units	Recorded result
CCCCCCCCCCCC[C@@H](O)[C@H]1CC[C@H]([C@H](O)CCCCCCCCCCNC(=O)c2ccsc2)O1	GI50	µM	0.2
CCCCCCCCCCCC[C@@H](O)[C@H]1CC[C@H]([C@H](O)CCCCCCCCCCNC(=O)c2ccoc2)O1	GI50	µM	3.02
CCCCCCCCCCCC[C@@H](O)[C@H]1CC[C@H]([C@H](O)CCCCCCCCCCNC(=O)c2ccco2)O1	GI50	µM	12.9
CCCCCCCCCCCC[C@@H](O)[C@H]1CC[C@H]([C@H](O)CCCCCCCCCCNC(=O)c2cncs2)O1	GI50	µM	4.79
CCCCCCCCCCCC[C@@H](O)[C@H]1CC[C@H]([C@H](O)CCCCCCCCCCNC(=O)c2cccs2)O1	GI50	µM	0.676
